Test: TNF-a-driven NF-kB reporter inhibitors, primary screen, selectivity assay for NOD1/NOD2 signaling inhibitor project, cell-based, HEK293T NF-kB-Luc, luminescence (AID 1852)
Settings: TNF-a induced, 14 h, at 4 µM, hits give high values
Among all 2,500 compounds or so, about 1,100 (44%) were called active. So high a share suggests a set chosen from earlier hits. The list shows a part of the results.
Lab note: compare inhibition against 30%. Equal or greater, write 1. Smaller, write 0.

{"COMPOUND": "Cc1ccc(C)c(OCC(=O)Nc2nc3ccc([N+](=O)[O-])cc3s2)c1C", "LABEL VALUE": 1}
{"COMPOUND": "N#Cc1c(-c2ccccc2)nc(SCc2cccc(C(F)(F)F)c2)[nH]c1=O", "LABEL VALUE": 0}
{"COMPOUND": "CCn1cc(CN2CCCC(C(=O)c3ccc(-c4ccccc4)cc3)C2)cn1 (stereo not given)", "LABEL VALUE": 0}
{"COMPOUND": "O=C(NC(Nc1nc2ccc([N+](=O)[O-])cc2s1)(C(F)(F)F)C(F)(F)F)c1ccccc1Cl", "LABEL VALUE": 1}
{"COMPOUND": "O=C(COC(=O)/C=C/C(=O)OCC(=O)Nc1ccccc1F)Nc1ccccc1F", "LABEL VALUE": 1}
